These measurements were taken from ChEMBL document CHEMBL5728033.

Biological target: Beta-lactamase (Escherichia coli K-12)
Sequence (P00811 whole entry): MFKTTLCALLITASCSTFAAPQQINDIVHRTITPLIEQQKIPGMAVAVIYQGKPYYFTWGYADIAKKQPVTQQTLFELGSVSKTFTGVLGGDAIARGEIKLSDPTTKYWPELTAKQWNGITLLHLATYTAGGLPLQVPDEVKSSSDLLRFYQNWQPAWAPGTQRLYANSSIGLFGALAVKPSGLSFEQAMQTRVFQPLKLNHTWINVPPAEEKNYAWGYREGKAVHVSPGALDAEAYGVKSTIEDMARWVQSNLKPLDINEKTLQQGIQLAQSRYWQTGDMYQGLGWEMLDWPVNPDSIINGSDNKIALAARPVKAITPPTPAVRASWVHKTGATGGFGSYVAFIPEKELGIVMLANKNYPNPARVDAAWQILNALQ
Test: Inhibition of Beta-Lactamase Enzymes: A buffer consisting of 0.1 M sodium phosphate (pH 7.0), 10 mM NaHCO3, and 0.005% Triton X-100 was used for all enzymes. The chromogenic substrate nitrocefin (SynGene, Bangalore, India) was used at 100 μM. Enzyme activity was monitored by the 490 nm absorbance increase upon nitrocefin hydrolysis. Assays were performed in clear polystyrene 384-well plates (Greiner Bio-One, Monroe, N.C.). Absorbance was measured for 1 hour at 30-s intervals using a Spectramax absorbance plate reader (Molecular Devices, Sunnyvale, Calif.). Measurement of beta-lactamase inhibition by INHIBITOR employed serial 3-fold dilutions of the inhibitor in assay buffer, ranging from 100 μM to 62.7 pM. A background absorbance progress curve for a control lacking enzyme and inhibitor was subtracted from each progress curve.
property: IC50 (nM)
Only the number, expressed in nM, is required.

# input Checklist item: IC50 tested on Beta-lactamase (Escherichia coli K-12), entry NC(=O)[C@@H]1C(C2CC2)=C[C@@H]2CN1C(=O)N2O[C@@H](F)C(=O)O , value?
# output 95

# input Checklist item: IC50 tested on Beta-lactamase (Escherichia coli K-12), entry CC1=C[C@@H]2CN(C(=O)N2O[C@@H](F)C(=O)O)[C@@H]1C(=O)NOC[C@@H]1CCC(=O)N1 , value?
# output 53

# input Checklist item: IC50 tested on Beta-lactamase (Escherichia coli K-12), entry CC1=C[C@@H](C(N)=O)N2C[C@@H]1N(O[C@@H](F)C(=O)O)C2=O , value?
# output 300

# input Checklist item: IC50 tested on Beta-lactamase (Escherichia coli K-12), entry CC1=C[C@@H]2CN(C(=O)N2O[C@@H](F)C(=O)O)[C@@H]1C(=O)NCCS(N)(=O)=O , value?
# output 4.1

# input Checklist item: IC50 tested on Beta-lactamase (Escherichia coli K-12), entry CC1=C[C@@H]2CN(C(=O)N2O[C@@H](F)C(=O)O)[C@@H]1CNC(=O)OC(C)(C)C , value?
# output 44000

# input Checklist item: IC50 tested on Beta-lactamase (Escherichia coli K-12), entry CC1=C[C@@H]2CN(C(=O)N2O[C@@H](F)C(=O)O)[C@@H]1C(=O)NOCC1CC1 , value?
# output 130

# input Checklist item: IC50 tested on Beta-lactamase (Escherichia coli K-12), entry CC1=C[C@@H]2CN(C(=O)N2OC(F)C(=O)O)[C@@H]1C(=O)NCc1cnccn1 (some centres undefined) , value?
# output 1.8

# input Checklist item: IC50 tested on Beta-lactamase (Escherichia coli K-12), entry CC1=C[C@@H]2CN(C(=O)N2OCC(=O)O)[C@@H]1C(N)=O , value?
# output 1200

# input Checklist item: IC50 tested on Beta-lactamase (Escherichia coli K-12), entry CC1=C[C@@H]2CN(C(=O)N2O[C@@H](F)C(=O)O)[C@@H]1C(=O)NOCCS(N)(=O)=O , value?
# output 140
